Test system: HSSY-II tumor spheroid viability
assay_remarks: Anticancer human tumor HSSY-II cell line growth inhibition; active means viability on the fitted dose curve at most 10% of control; inactive means the rest;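 further: spheroids exposed to compounds for seven days before reading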
experimental_context: second compound 3.16 µM; first compound 0.949 µM; spheroids with HUVEC and MSC
Hi there, use one of these labels in your reply, thanks! True (active), False (inactive)

Completed entries (count: 3):
compound	class_name
Cc1sc2c(c1C)C(c1ccc(Cl)cc1)=NC(CC(=O)Nc1ccc(O)cc1)c1nnc(C)n1-2 (centres undefined) + Cn1nnc2c(C(N)=O)ncn2c1=O	False
O=C(c1cc(Cc2n[nH]c(=O)c3ccccc23)ccc1F)N1CCN(C(=O)C2CC2)CC1 + Cn1nnc2c(C(N)=O)ncn2c1=O	False
CNCc1ccc(-c2cc(-c3nc(-c4ccc(S(=O)(=O)C(C)C)cc4)cnc3N)on2)cc1 + Cn1nnc2c(C(N)=O)ncn2c1=O	True

Okay, next one:
[Q] Please let me know the test result on file for Cn1ncnc1[C@H]1c2n[nH]c(=O)c3cc(F)cc(c23)N[C@@H]1c1ccc(F)cc1 + Cn1nnc2c(C(N)=O)ncn2c1=O .
[A] False

====

# maps each entry to its pIC50
Test system: HSSY-II tumor spheroid viability
assay_remarks: Anticancer human tumor HSSY-II cell line growth inhibition;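 further: spheroids exposed to compounds for seven days before reading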
experimental_context: curve of first compound; second compound 1 µM; spheroids with HUVEC and MSC
Hey, just a heads up that pIC50 is the negative log base 10 of the concentration in molar.

Here are 3 compounds together with their reported answers.
compound	val
CC(C)n1c(=O)n(C)c2cnc3cc(F)c(-c4ccc(OCCCN5CCCCC5)nc4)cc3c21 + Cn1nnc2c(C(N)=O)ncn2c1=O	5.19
CNCc1ccc(-c2cc(-c3nc(-c4ccc(S(=O)(=O)C(C)C)cc4)cnc3N)on2)cc1 + Cn1nnc2c(C(N)=O)ncn2c1=O	7.36
O=C(c1cc(Cc2n[nH]c(=O)c3ccccc23)ccc1F)N1CCN(C(=O)C2CC2)CC1 + Cn1nnc2c(C(N)=O)ncn2c1=O	5.21

[Q] Give the measured pIC50 of Cc1sc2c(c1C)C(c1ccc(Cl)cc1)=NC(CC(=O)Nc1ccc(O)cc1)c1nnc(C)n1-2 (stereo not given) + Cn1nnc2c(C(N)=O)ncn2c1=O .
[A] 6.79

[Q] Give the measured pIC50 of COc1ccc([C@@H](O)c2cc(-c3ncnc4cc(N5CCOCC5)ccc34)c(F)cc2Cl)nn1 + Cn1nnc2c(C(N)=O)ncn2c1=O .
[A] 5.65

[Q] Give the measured pIC50 of Cn1ncnc1[C@H]1c2n[nH]c(=O)c3cc(F)cc(c23)N[C@@H]1c1ccc(F)cc1 + Cn1nnc2c(C(N)=O)ncn2c1=O .
[A] 7.06

====

# maps each entry to its pIC50
Test system: HSSY-II tumor spheroid viability
assay_remarks: Anticancer human tumor HSSY-II cell line growth inhibition;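 further: spheroids exposed to compounds for seven days before reading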
experimental_context: curve of first compound; second compound 0.03 µM; spheroids with HUVEC and MSC
pIC50: −log10 of the molar value.

Here are 3 compounds together with their reported answers.
compound	pIC50
COc1ccc([C@@H](O)c2cc(-c3ncnc4cc(N5CCOCC5)ccc34)c(F)cc2Cl)nn1 + CC[C@@]1(O)C(=O)OCc2c1cc1n(c2=O)Cc2cc3c(CN(C)C)c(O)ccc3nc2-1	> 7.50
[2H]c1nc(C)nc([2H])c1-c1cc(NC[C@@H](C)c2cccc3c(C(=O)NC)ccnc23)ncn1 + CC[C@@]1(O)C(=O)OCc2c1cc1n(c2=O)Cc2cc3c(CN(C)C)c(O)ccc3nc2-1	> 7.50
CC(C)n1c(=O)n(C)c2cnc3cc(F)c(-c4ccc(OCCCN5CCCCC5)nc4)cc3c21 + CC[C@@]1(O)C(=O)OCc2c1cc1n(c2=O)Cc2cc3c(CN(C)C)c(O)ccc3nc2-1	> 7.50

[Q] Give the measured pIC50 of O=C(c1cc(Cc2n[nH]c(=O)c3ccccc23)ccc1F)N1CCN(C(=O)C2CC2)CC1 + CC[C@@]1(O)C(=O)OCc2c1cc1n(c2=O)Cc2cc3c(CN(C)C)c(O)ccc3nc2-1 .
[A] > 7.02

[Q] Give the measured pIC50 of CC1COCCN1c1cc(-c2ccnn2C)c2ccnc(-c3ccn[nH]3)c2n1 (stereo not given) + CC[C@@]1(O)C(=O)OCc2c1cc1n(c2=O)Cc2cc3c(CN(C)C)c(O)ccc3nc2-1 .
[A] > 7.50

[Q] Give the measured pIC50 of Cc1cc(C)c(CNC(=O)c2cc(-c3ccc(CN4CCOCC4)cc3)cc3c2cnn3C2CCCC2)c(=O)[nH]1 + CC[C@@]1(O)C(=O)OCc2c1cc1n(c2=O)Cc2cc3c(CN(C)C)c(O)ccc3nc2-1 .
[A] > 7.50

[Q] Give the measured pIC50 of Cc1sc2c(c1C)C(c1ccc(Cl)cc1)=NC(CC(=O)Nc1ccc(O)cc1)c1nnc(C)n1-2 (stereo not given) + CC[C@@]1(O)C(=O)OCc2c1cc1n(c2=O)Cc2cc3c(CN(C)C)c(O)ccc3nc2-1 .
[A] > 8.02

====

# maps each entry to its viability, T/C
Test system: HSSY-II tumor spheroid viability
assay_remarks: Anticancer human tumor HSSY-II cell line growth inhibition;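 further: spheroids exposed to compounds for seven days before reading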;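 on viability, T/C: percent of DMSO vehicle control viability so 100% = untreated level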
experimental_context: second compound 0.3 µM; first compound 0.316 µM; stronger effect = lower value; spheroids with HUVEC and MSC
// units = %; emit number, no label

compound	tgt	result_units	val
Cc1cc(C)c(CNC(=O)c2cc(-c3ccc(CN4CCOCC4)cc3)cc3c2cnn3C2CCCC2)c(=O)[nH]1 + CC[C@@]1(O)C(=O)OCc2c1cc1n(c2=O)Cc2cc3c(CN(C)C)c(O)ccc3nc2-1	HSSY-II tumor spheroid viability	%	4.75
CC(C)n1c(=O)n(C)c2cnc3cc(F)c(-c4ccc(OCCCN5CCCCC5)nc4)cc3c21 + CC[C@@]1(O)C(=O)OCc2c1cc1n(c2=O)Cc2cc3c(CN(C)C)c(O)ccc3nc2-1	HSSY-II tumor spheroid viability	%	5.88

Next up:
[Q] Give the measured viability, T/C of [2H]c1nc(C)nc([2H])c1-c1cc(NC[C@@H](C)c2cccc3c(C(=O)NC)ccnc23)ncn1 + CC[C@@]1(O)C(=O)OCc2c1cc1n(c2=O)Cc2cc3c(CN(C)C)c(O)ccc3nc2-1 .
[A] 7.42

====

System: HSSY-II tumor spheroid viability
assay_remarks: Anticancer human tumor HSSY-II cell line growth inhibition;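 further: spheroids exposed to compounds for seven days before reading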
experimental_context: curve of first compound; second compound 94.9 pM; spheroids with HUVEC and MSC
measured_property: IC50 (nM)
// units = nM; emit number, no label

compound	val
COc1ccc([C@@H](O)c2cc(-c3ncnc4cc(N5CCOCC5)ccc34)c(F)cc2Cl)nn1 + COc1cc2c(cc1O)CCNC21CSC2c3c(OC(C)=O)c(C)c4c(c3C(COC1=O)N1C(O)C3Cc5cc(C)c(OC)c(O)c5C(C21)N3C)OCO4	686
O=C(c1cc(Cc2n[nH]c(=O)c3ccccc23)ccc1F)N1CCN(C(=O)C2CC2)CC1 + COc1cc2c(cc1O)CCNC21CSC2c3c(OC(C)=O)c(C)c4c(c3C(COC1=O)N1C(O)C3Cc5cc(C)c(OC)c(O)c5C(C21)N3C)OCO4	875

[Q] Give the measured IC50 of CNCc1ccc(-c2cc(-c3nc(-c4ccc(S(=O)(=O)C(C)C)cc4)cnc3N)on2)cc1 + COc1cc2c(cc1O)CCNC21CSC2c3c(OC(C)=O)c(C)c4c(c3C(COC1=O)N1C(O)C3Cc5cc(C)c(OC)c(O)c5C(C21)N3C)OCO4 .
[A] 11.5

[Q] Give the measured IC50 of Cc1cc(C)c(CNC(=O)c2cc(-c3ccc(CN4CCOCC4)cc3)cc3c2cnn3C2CCCC2)c(=O)[nH]1 + COc1cc2c(cc1O)CCNC21CSC2c3c(OC(C)=O)c(C)c4c(c3C(COC1=O)N1C(O)C3Cc5cc(C)c(OC)c(O)c5C(C21)N3C)OCO4 .
[A] 8460

[Q] Give the measured IC50 of CC(C)n1c(=O)n(C)c2cnc3cc(F)c(-c4ccc(OCCCN5CCCCC5)nc4)cc3c21 + COc1cc2c(cc1O)CCNC21CSC2c3c(OC(C)=O)c(C)c4c(c3C(COC1=O)N1C(O)C3Cc5cc(C)c(OC)c(O)c5C(C21)N3C)OCO4 .
[A] 7160

[Q] Give the measured IC50 of Cc1sc2c(c1C)C(c1ccc(Cl)cc1)=NC(CC(=O)Nc1ccc(O)cc1)c1nnc(C)n1-2 (stereo not given) + COc1cc2c(cc1O)CCNC21CSC2c3c(OC(C)=O)c(C)c4c(c3C(COC1=O)N1C(O)C3Cc5cc(C)c(OC)c(O)c5C(C21)N3C)OCO4 .
[A] 54

====

Test system: HSSY-II tumor spheroid viability
assay_remarks: Anticancer human tumor HSSY-II cell line growth inhibition;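 further: spheroids exposed to compounds for seven days before reading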;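 on viability, T/C: percent of DMSO vehicle control viability so 100% = untreated level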
experimental_context: second compound 0.0003 µM; first compound 3 µM; stronger effect = lower value; spheroids with HUVEC and MSC
measured_property: viability, T/C (%)
// units = %; emit number, no label

molecule	result_units	val
O=C(c1cc(Cc2n[nH]c(=O)c3ccccc23)ccc1F)N1CCN(C(=O)C2CC2)CC1 + COc1cc2c(cc1O)CCNC21CSC2c3c(OC(C)=O)c(C)c4c(c3C(COC1=O)N1C(O)C3Cc5cc(C)c(OC)c(O)c5C(C21)N3C)OCO4	%	8.1
Cn1ncnc1[C@H]1c2n[nH]c(=O)c3cc(F)cc(c23)N[C@@H]1c1ccc(F)cc1 + COc1cc2c(cc1O)CCNC21CSC2c3c(OC(C)=O)c(C)c4c(c3C(COC1=O)N1C(O)C3Cc5cc(C)c(OC)c(O)c5C(C21)N3C)OCO4	%	3.6
CNCc1ccc(-c2cc(-c3nc(-c4ccc(S(=O)(=O)C(C)C)cc4)cnc3N)on2)cc1 + COc1cc2c(cc1O)CCNC21CSC2c3c(OC(C)=O)c(C)c4c(c3C(COC1=O)N1C(O)C3Cc5cc(C)c(OC)c(O)c5C(C21)N3C)OCO4	%	0.12

Next up:
[Q] Request body: readout viability, T/C, system HSSY-II tumor spheroid viability, query Cc1sc2c(c1C)C(c1ccc(Cl)cc1)=NC(CC(=O)Nc1ccc(O)cc1)c1nnc(C)n1-2 (centres undefined) + COc1cc2c(cc1O)CCNC21CSC2c3c(OC(C)=O)c(C)c4c(c3C(COC1=O)N1C(O)C3Cc5cc(C)c(OC)c(O)c5C(C21)N3C)OCO4 . Return the value.
[A] 0.21
